biological target: full-length FUS wild type (UniProt P35637 1-526); assay: steady-state fluorescence (2-AP); 150 mM KCl, 5-fold excess BSA; Fluorescence: 10 mM cacodylic acid pH 6.5, 150 mM KCl, 23 C, 150 or 200 nM RNA, 5-fold excess BSA or HCV peptide; pull-down: 5 uM probe annealed in the same buffer, room temperature, RIPA lysate and washes; native PAGE 20%, RNA:peptide 1:1 to 1:3; details: protein: recombinant; label: 2-AP at position 18; G quadruplex
Sequence (P35637 whole entry): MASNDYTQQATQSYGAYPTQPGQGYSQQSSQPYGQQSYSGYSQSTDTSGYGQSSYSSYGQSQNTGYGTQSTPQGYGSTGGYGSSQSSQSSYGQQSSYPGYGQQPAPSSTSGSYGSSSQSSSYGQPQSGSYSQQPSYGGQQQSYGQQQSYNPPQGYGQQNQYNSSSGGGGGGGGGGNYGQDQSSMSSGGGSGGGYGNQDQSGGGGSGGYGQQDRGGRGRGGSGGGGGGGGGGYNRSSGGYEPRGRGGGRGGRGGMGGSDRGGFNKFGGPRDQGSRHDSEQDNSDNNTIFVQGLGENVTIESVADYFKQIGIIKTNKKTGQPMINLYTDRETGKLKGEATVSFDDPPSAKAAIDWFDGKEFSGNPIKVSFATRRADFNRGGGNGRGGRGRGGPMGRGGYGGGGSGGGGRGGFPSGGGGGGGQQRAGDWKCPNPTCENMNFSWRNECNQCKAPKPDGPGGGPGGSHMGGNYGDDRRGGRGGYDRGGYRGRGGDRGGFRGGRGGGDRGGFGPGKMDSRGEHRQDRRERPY
readout: pKd
Please report pKd as the negative decimal logarithm of the molar concentration, giving only the number.

query: Input GGGGUUGGGGAGGGUGUAGGGGGUGGGG (structured_RNA, A18 replaced by 2-aminopurine) [Shank1a GQ 2-AP] , output reported pKd.
result: 7.06
